I'd appreciate it if you could supply efficacy (beetle larvae killed) values for the items below.
# Tested on: Phaedon cochleariae
# ASSAY EXPLANATION: Phaedon cochleariae spray test
# Assay type: in vivo
# CONDITIONS: application rate 500 g/ha, after 7 days, Chinese cabbage leaf discs
# Method: Phaedon cochleariae—Spray Test Solvent: 78.0 parts by weight of acetone • • 1.5 parts by weight of dimethylformamide Emulsifier: alkylaryl polyglycol ether To produce a suitable active ingredient formulation, 1 part by weight of active ingredient is dissolved with the specified parts by weight of solvent and made up with water containing an emulsifier concentration of 1000 ppm until the desired concentration is attained. […] After 7 days, the efficacy in % is determined. […]
One number for each entry, in %.

Use these answered entries as a reference point.
CHEMICAL SMILES: N#Cc1ccc(CNC(=O)c2cc(-c3cc(F)c(OC(F)F)c(F)c3)cc(NC(=O)C3CC3)n2)cc1
READING UNIT: %
efficacy (beetle larvae killed): 83

CHEMICAL SMILES: N#Cc1ccc(CNC(=O)c2cc(-c3ccc(OC(F)(F)F)cc3)cc(NC(=O)C3CC(F)(F)C3)n2)cc1
READING UNIT: %
efficacy (beetle larvae killed): 100

CHEMICAL SMILES: O=C(NCc1ccc([N+](=O)[O-])cc1)c1cc(-c2ccc(C(F)(F)C(F)(F)F)cc2)cc(NC(=O)C2CC2)n1
READING UNIT: %
efficacy (beetle larvae killed): 100

# next compound below
Q: Output efficacy (beetle larvae killed) of N#CC1(NC(=O)c2cc(-c3ccc(OC(F)(F)F)cc3)cc(NC(=O)C3CC3)n2)CCC1
A: 100

----------
Assign LOGP_HCOOH to each entry below.
# ASSAY EXPLANATION: log P by HPLC on reversed-phase column (C 18), EEC Directive 79/831 Annex V.A8
# Format: physicochemical
# CONDITIONS: log P (HCOOH), acidic range pH 2.7, 0.1% aqueous formic acid and acetonitrile; reversed-phase column (C 18), 55° C.
# Procedure: Temperature: 55° C. […] Called log P (HCOOH) in the table. […] Called log P (neutral) in the table.
Numbers only.

Below, each entry is followed by its recorded LOGP_HCOOH result.
MOLECULE: O=C(NCc1ccc(Cl)c(F)c1)c1cc(-c2ccc(C(F)(F)F)cc2)cc(NC(=O)C2CC2)n1 [Example I-056]
LOGP_HCOOH: 4.57
//
MOLECULE: CCONC(=O)c1cc(-c2ccc(OC(F)(F)F)cc2)cc(NC(=O)C2CC2)n1 [Example I-235]
LOGP_HCOOH: 3.21
//
MOLECULE: CC(C)C(=O)Nc1cc(-c2ccc(C(F)(F)F)cc2)cc(C(=O)NCc2ccc(C#N)cc2)n1 [Example I-015]
LOGP_HCOOH: 3.91

Then there is this molecule:
Q: Report measured LOGP_HCOOH; entry is N#Cc1ccc(CNC(=O)c2cc(-c3ccc(F)cc3)cc(NC(=O)C3CC3)n2)cc1 [Example I-002]
A: 3.24

----------
What LOGP_HCOOH was measured for each of the following?
# ASSAY EXPLANATION: log P by HPLC on reversed-phase column (C 18), EEC Directive 79/831 Annex V.A8
# Type: physicochemical
# CONDITIONS: log P (HCOOH), acidic range pH 2.7, 0.1% aqueous formic acid and acetonitrile; reversed-phase column (C 18), 55° C.

Example entries and their recorded answers appear below.
MOLECULE: CC(NC(=O)c1cc(-c2ccc(C(F)(F)C(F)(F)F)c(F)c2)cc(NC(=O)C2CC2)n1)c1ccc(C#N)cc1 (stereo not drawn)
LOGP_HCOOH: 4.56

MOLECULE: CC(C)C(=O)Nc1cc(-c2ccc(C(F)(F)F)cc2)cc(C(=O)NCc2ccc(C#N)cc2F)n1
LOGP_HCOOH: 3.99

MOLECULE: CC(C)C(=O)Nc1cc(-c2ccc(C(F)(F)F)cc2)cc(C(=O)NCc2cc(F)c(C#N)cc2F)n1
LOGP_HCOOH: 4.23

MOLECULE: Cc1cc(-c2cc(NC(=O)C3CC3)nc(C(=O)NCc3ccc(C#N)cc3)c2)ccc1OC(F)(F)F
LOGP_HCOOH: 4.21

MOLECULE: N#Cc1ccc(CNC(=O)c2cc(-c3ccc(OC(F)(F)F)cc3)cc(NC(=O)C3CC3)n2)cc1
LOGP_HCOOH: 3.90

MOLECULE: N#Cc1cc(F)c(CNC(=O)c2cc(-c3ccc(C(F)(F)C(F)(F)F)c(F)c3)cc(NC(=O)C3CC3)n2)cc1F
LOGP_HCOOH: 4.51

Return reported LOGP_HCOOH values for all items listed beneath this line.
1. N#Cc1cccc(CNC(=O)c2cc(-c3ccc(F)cc3)cc(NC(=O)C3CC3)n2)c1
2. N#Cc1ccc(CNC(=O)c2cc(-c3ccc(SC(F)(F)F)cc3)cc(NC(=O)C3CC3)n2)cn1
3. N#Cc1ccc(CNC(=O)c2cc(-c3ccc(OC(F)(F)F)cc3)cc(NC(=O)C3CC3)n2)nc1
4. COC1(NC(=O)c2cc(-c3ccc(C(F)(F)C(F)(F)F)c(F)c3)cc(NC(=O)C3CC3)n2)CC1
5. O=C(NCc1cccc(F)c1)c1cc(-c2ccc(C(F)(F)F)cc2)cc(NC(=O)C2CC2)n1
6. CC(C)(C#N)NC(=O)c1cc(-c2ccc(OC(F)(F)F)cc2)cc(NC(=O)C2CC2)n1

A:
[3.26, 3.79, 3.42, 4.08, 4.24, 3.77]

Please report LOGP_HCOOH for every entry that follows.
1. CCC(=O)Nc1cc(-c2ccc(C(F)(F)F)cc2)cc(C(=O)NCc2ccc(C#N)cc2)n1
2. CC(C)(CS(C)(=O)=O)NC(=O)c1cc(-c2ccc(C(F)(F)C(F)(F)F)c(F)c2)cc(NC(=O)C2CC2)n1
3. O=C(NCc1ccc([N+](=O)[O-])s1)c1cc(-c2ccc(OC(F)(F)F)cc2)cc(NC(=O)C2CC2)n1

A:
1. 4.59
2. 3.96
3. 4.10
